MEASURE_NAME: logP
Please reply with the value in numeric form only.

Please report the recorded logP for O=[N+]([O-])c1cc(C(F)(F)F)c(Cl)c([N+](=O)[O-])c1Nc1ncc(C(F)(F)F)cc1Cl . 4.01

Give the measured logP of COC(=O)N(OC)c1ccccc1COc1ccn(-c2ccc(Cl)cc2)n1 . 3.99

Field request: logP | item: CCC(C)(CC)c1cc(NC(=O)c2c(OC)cccc2OC)on1 3.94
